Listing of recorded koff by entry.
- TARGET_SYSTEM: canine FcRn (FcRn large subunit with canine beta-2-microglobulin) (canine)
- ASSAY_PROTOCOL: SPR pH 5.9, IgG coupled to C1 chip, 1:1 kinetic fit

Recorded koff, per entry:
* anti-NGF canine IgGB antibody, Fc variant A426Y + Y436H (antibody, part only; not given: anti-NGF variable domains and light chain, not shown: another chain or arm of the molecule; small tags and cut ends) Fc: APEMLGGPSVFIFPPKPKDTLLIARTPEVTCVVVDLDPEDPEVQISWFVDGKQMQTAKTQPREEQFNGTYRVVSVLPIGHQDWLKGKQFTCKVNNKALPSPIERTISKARGQAHQPSVYVLPPSREELSKNTVSLTCLIKDFFPPDIDVEWQSNGQQEPESKYRTTPPQLDEDGSYFLYSKLSVDKSRWQRGDTFICYVMHEALHNHHTQESLSHSPGK | 0.0608 s⁻¹
* anti-NGF canine IgGB antibody, Fc variant A426H + D312P (antibody, part only; not given: Anti-NGF variable domains, not shown: another chain or arm of the molecule; small tags and cut ends) Fc: APEMLGGPSVFIFPPKPKDTLLIARTPEVTCVVVDLDPEDPEVQISWFVDGKQMQTAKTQPREEQFNGTYRVVSVLPIGHQPWLKGKQFTCKVNNKALPSPIERTISKARGQAHQPSVYVLPPSREELSKNTVSLTCLIKDFFPPDIDVEWQSNGQQEPESKYRTTPPQLDEDGSYFLYSKLSVDKSRWQRGDTFICHVMHEALHNHYTQESLSHSPGK | 0.0532 s⁻¹

Query binder follows.
Field request: koff | item: anti-NGF canine IgGB antibody, Fc variant A426Y + T286L + Y436H (antibody, part only; not given: anti-NGF variable domains and light chain, not shown: another chain or arm of the molecule) Fc: APEMLGGPSVFIFPPKPKDTLLIARTPEVTCVVVDLDPEDPEVQISWFVDGKQMQLAKTQPREEQFNGTYRVVSVLPIGHQDWLKGKQFTCKVNNKALPSPIERTISKARGQAHQPSVYVLPPSREELSKNTVSLTCLIKDFFPPDIDVEWQSNGQQEPESKYRTTPPQLDEDGSYFLYSKLSVDKSRWQRGDTFICYVMHEALHNHHTQESLSHSPGK
0.0412 s⁻¹
